Each record here notes measured cell viability.
Tested on: NOMO1
Test: cell viability relative to DMSO control; higher = less cytotoxic
Settings: RPMI 5 mM glucose + 10% FBS; 48 h; 5.12 µM
test.readout: cell viability

>>> observed_measurement("C[C@@H]1CCO[C@H]2CN\\3/C=C(/C(=O)NCC4=C(F)C=C(F)C=C4)C(=O)\\C(=C3C(=O)N12)O")
"86.3%"
>>> observed_measurement("CC[C@H]1OC(=O)[C@H](C)C(=O)[C@H](C)[C@@H](O[C@H]2O[C@H](C)C[C@H](N(C)C)[C@H]2O)[C@](C)(OC)C[C@@H](C)C(=O)[C@H](C)[C@H]2N(CCCCn3cnc(-c4cccnc4)c3)C(=O)O[C@]12C")
"118%"
>>> observed_measurement("CN(C)CC(C)(C)CNc1nn2c(-c3ccccc3)nnc2cc1C1CCC1")
"116%"
>>> observed_measurement("CCCNC(=O)Nc1ccc(Oc2ncnc3cc(OC)c(OC)cc23)cc1Cl")
"87.4%"
>>> observed_measurement("COc1ccc2c(c1)[C@]13CCCCC1C(C2)N(C)CC3 (some centres undefined)")
"121%"
>>> observed_measurement("CC[C@@H]([C@H](C)O)n1ncn(-c2ccc(N3CCN(c4ccc(OCC5CO[C@@](Cn6cncn6)(c6ccc(F)cc6F)C5)cc4)CC3)cc2)c1=O (some centres undefined)")
"87.5%"
>>> observed_measurement("OCC(O)C(O)C(O)CO (centres undefined)")
"82%"
>>> observed_measurement("COC1=C(OCCCN2CCOCC2)C=CC\\3=C1/N=C(/NC(=O)C4=CN=C(N)N=C4)N5CC/N=C35")
"52%"
>>> observed_measurement("COc1ccc(C(=O)CC2(O)C(=O)Nc3c(Cl)ccc(Cl)c32)cc1 (centres undefined)")
"101%"

---

Each record here notes measured AUC of viability dose-response curve.
Tested on: NOMO1
Test: AUC of viability dose-response curve (% viability x log10 dose units); higher = less sensitive
Settings: RPMI 5 mM glucose + 10% FBS; 48 h
test.readout: AUC of viability dose-response curve

>>> observed_measurement("O=C(Nc1cc(C(F)(F)F)cc(C(F)(F)F)c1)c1cc(Cl)ccc1O")
368
>>> observed_measurement("COc1cc2c(cc1OC)CN(CCc1ccc(NC(=O)c3cc(OC)c(OC)cc3NC(=O)c3cnc4ccccc4c3)cc1)CC2")
458
>>> observed_measurement("O=C(CCCN1CCN(c2ccc(F)cc2)CC1)NC1c2ccccc2CSc2ccccc21 (stereo not drawn)")
440
>>> observed_measurement("Cc1cnc(Nc2ccc(F)cc2Cl)nc1-c1c[nH]c(C(=O)N[C@H](CO)c2cccc(Cl)c2)c1")
335
>>> observed_measurement("C=CC(=O)Nc1cc2c(Nc3ccc(F)c(Cl)c3)ncnc2cc1OCCCN1CCOCC1")
429
>>> observed_measurement("CCc1ccc(/C=C2/SC(=S)NC2=O)cc1")
387
>>> observed_measurement("Oc1nc(-c2ccc(C(F)(F)F)cc2)nc2c1CSCC2")
441
>>> observed_measurement("COc1ccc2c(c1)[C@]13CCCCC1C(C2)N(C)CC3 (stereo partly drawn)")
466

---

Each record here notes measured cell viability.
System: SEM cells
Experiment: cell viability relative to DMSO control; higher = less cytotoxic
Settings: RPMI 5 mM glucose + 10% dialyzed FBS; 48 h; 0.00234 µM
test.readout: cell viability (%)

>>> observed_measurement("CC(C(=O)O)c1ccc2c(c1)CC(=O)c1ccccc1S2 (stereo not drawn)")
115
>>> observed_measurement("COc1c(C)c2c(c(O)c1C/C=C(\\C)CCC(=O)O)C(=O)OC2")
104
>>> observed_measurement("CC(C)(O)CC(=O)NCCn1ccc2ncnc(Nc3ccc(Oc4cccc(C(F)(F)F)c4)c(Cl)c3)c21")
88
>>> observed_measurement("C[C@]12CC[C@H]3[C@@H](CCC4=CC(=O)CC[C@@H]43)[C@@H]1CC[C@@H]2OC(=O)CCc1ccccc1")
26.5
>>> observed_measurement("OCC(O)C(O)C(O)CO (stereo not drawn)")
105
>>> observed_measurement("Cc1cc2c(C(N)=O)cccc2n1-c1nc2c(c(NCc3ccccc3)n1)COCC2")
105
>>> observed_measurement("NC(=O)c1ccc(N(C(N)=O)c2c(F)cccc2F)nc1-c1ccc(F)cc1F")
86.7
>>> observed_measurement("Nc1c2c(nc3ccccc13)CCCC2")
131

// provenance: the supplement of paper PMC11451515
